# experimental_details: in vivo
# run_parameters: both, Sprague-Dawley, rat, iv, 5 mg/kg
Where a SMILES comes first, the peptide text is derived from it. Bridges are numbered along the chain shown (N, C = ends).
measurement_label: clearance (mL/min/kg)
Write the answer as a number in mL/min/kg, unit excluded.

Challenge: May I ask what clearance has been recorded for CC[C@H](C)[C@@H]1NC(=O)[C@@H]2CSSC[C@H](NC(=O)[C@H](CCCNC(=N)N)NC(=O)[C@@H]3CSSC[C@H](NC1=O)C(=O)N[C@@H]([C@@H](C)O)C(=O)N[C@@H](CCCNC(=N)N)C(=O)NCC(=O)N[C@@H](Cc1ccccc1)C(=O)N3)C(=O)N[C@@H](CC(C)C)C(=O)N[C@H]1CSSC[C@H](NC(=O)[C@H](C(C)C)NC(=O)CNC(=O)[C@H](CCCNC(=N)N)NC(=O)[C@H](CCCNC(=N)N)NC1=O)C(=O)N[C@@H](CCCNC(=N)N)C(=O)N2 [Peptide 1] (cyclo(GFCRCLCRRGVCRCICTR); disulfide 3-16, 5-14, 7-12) ?
Response given: 5.57
